Target: dopamine D3 receptor (D3R) (Homo sapiens)
Sequence (P35462 whole entry): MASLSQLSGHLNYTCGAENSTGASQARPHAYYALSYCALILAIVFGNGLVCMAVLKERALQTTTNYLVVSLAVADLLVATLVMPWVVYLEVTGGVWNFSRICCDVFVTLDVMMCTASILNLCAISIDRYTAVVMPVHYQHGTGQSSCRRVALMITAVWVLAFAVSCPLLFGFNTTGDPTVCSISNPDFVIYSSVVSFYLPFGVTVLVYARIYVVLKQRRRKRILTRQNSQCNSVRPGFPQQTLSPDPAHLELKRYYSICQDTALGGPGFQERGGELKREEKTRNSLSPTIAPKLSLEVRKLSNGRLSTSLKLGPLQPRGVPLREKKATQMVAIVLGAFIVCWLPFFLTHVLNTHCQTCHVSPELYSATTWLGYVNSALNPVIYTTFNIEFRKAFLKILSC
endpoint: Ki (nM)
Please reply with the bare figure in nM and do not write the unit itself.

Prompt: Ki of CO/C(=C/C(=O)N(C)C(Cc1ccccc1)c1nccs1)CC(C)C(Cl)(Cl)Cl (stereo not shown) [compound 1, barbamide] on dopamine D3 receptor (D3R) (Homo sapiens)?
Response: 446

* * *

Target: dopamine transporter (DAT) (Homo sapiens)
Sequence (Q01959 whole entry): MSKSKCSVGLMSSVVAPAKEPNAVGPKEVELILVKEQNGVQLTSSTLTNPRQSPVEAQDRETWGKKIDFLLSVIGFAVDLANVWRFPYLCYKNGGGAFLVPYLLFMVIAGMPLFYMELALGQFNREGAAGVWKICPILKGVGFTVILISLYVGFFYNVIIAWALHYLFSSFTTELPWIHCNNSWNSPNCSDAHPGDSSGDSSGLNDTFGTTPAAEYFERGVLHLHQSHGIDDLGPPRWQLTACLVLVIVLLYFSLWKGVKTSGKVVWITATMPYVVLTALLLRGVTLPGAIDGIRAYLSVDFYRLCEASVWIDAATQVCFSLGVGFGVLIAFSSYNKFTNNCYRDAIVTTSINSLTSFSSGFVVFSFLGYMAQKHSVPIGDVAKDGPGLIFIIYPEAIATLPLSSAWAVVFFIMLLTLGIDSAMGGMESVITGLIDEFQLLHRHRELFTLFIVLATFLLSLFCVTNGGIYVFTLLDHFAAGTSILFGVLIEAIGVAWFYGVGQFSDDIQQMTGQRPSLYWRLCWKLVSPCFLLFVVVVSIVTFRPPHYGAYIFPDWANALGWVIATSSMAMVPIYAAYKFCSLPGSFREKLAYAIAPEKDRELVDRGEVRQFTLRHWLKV
endpoint: pKi
pKi here: minus log base 10 of the concentration, concentration in moles per litre.

Prompt: pKi of CO/C(=C/C(=O)N(C)C(Cc1ccccc1)c1nccs1)CC(C)C(Cl)(Cl)Cl (stereo not shown) [compound 1, barbamide] on dopamine transporter (DAT) (Homo sapiens)?
Response: 5.51

* * *

Molecular target: kappa opioid receptor (KOR) (Homo sapiens)
Sequence (P41145 whole entry): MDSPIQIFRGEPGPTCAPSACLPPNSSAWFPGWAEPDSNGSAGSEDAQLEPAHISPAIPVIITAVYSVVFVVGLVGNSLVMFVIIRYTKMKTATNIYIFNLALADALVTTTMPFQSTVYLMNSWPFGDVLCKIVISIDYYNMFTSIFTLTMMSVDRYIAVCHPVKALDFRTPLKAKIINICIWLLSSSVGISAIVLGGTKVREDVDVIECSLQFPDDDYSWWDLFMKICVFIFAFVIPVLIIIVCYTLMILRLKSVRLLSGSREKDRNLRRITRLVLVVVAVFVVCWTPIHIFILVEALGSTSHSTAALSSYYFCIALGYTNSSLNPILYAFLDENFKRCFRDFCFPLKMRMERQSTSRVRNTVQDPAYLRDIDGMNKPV
endpoint: Ki (µM)
Please reply with the bare figure in µM and do not write the unit itself.

Prompt: Ki of CO/C(=C/C(=O)N(C)C(Cc1ccccc1)c1nccs1)CC(C)C(Cl)(Cl)Cl (stereo not shown) [compound 1, barbamide] on kappa opioid receptor (KOR) (Homo sapiens)?
Response: 0.0791
